Target sequence: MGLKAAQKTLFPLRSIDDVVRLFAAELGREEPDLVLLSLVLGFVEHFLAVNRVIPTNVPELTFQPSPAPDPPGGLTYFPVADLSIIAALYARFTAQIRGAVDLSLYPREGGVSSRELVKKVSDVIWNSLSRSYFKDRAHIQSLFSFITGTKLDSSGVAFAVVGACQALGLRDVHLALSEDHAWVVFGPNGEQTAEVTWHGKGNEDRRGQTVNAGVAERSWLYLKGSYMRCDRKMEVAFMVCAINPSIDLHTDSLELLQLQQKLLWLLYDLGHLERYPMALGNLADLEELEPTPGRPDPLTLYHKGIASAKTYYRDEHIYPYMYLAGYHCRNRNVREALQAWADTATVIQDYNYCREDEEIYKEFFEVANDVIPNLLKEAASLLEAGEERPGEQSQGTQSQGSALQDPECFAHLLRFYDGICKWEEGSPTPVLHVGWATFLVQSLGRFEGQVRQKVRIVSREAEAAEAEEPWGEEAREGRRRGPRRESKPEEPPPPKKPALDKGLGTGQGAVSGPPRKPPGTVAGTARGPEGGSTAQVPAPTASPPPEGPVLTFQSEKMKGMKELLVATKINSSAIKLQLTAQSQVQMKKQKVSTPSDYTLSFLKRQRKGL
pIC50: −log10 of the molar value.
metric-name: pIC50

C=CC(=O)N1CCCC[C@H](S(=O)(=O)c2ccc(N3CC(CN4CCC([C@@](CN5CCC5)(c5cccc(F)c5)[C@H]5CCC[C@@H]5NC(=O)OC)CC4)(OC)C3)c(F)c2)C1 ... 8.40
COC(=O)N[C@H]1CCC[C@@H]1[C@](CN1CCC1)(c1cccc(F)c1)C1CCN(CC2CN(c3ccc(S(=O)(=O)C4CN(C(=O)/C=C/CN5CCCCC5)C4)cc3)C2)CC1 ... 8.52
COC(=O)N[C@H]1CCC[C@@H]1[C@](CN1CCC1)(c1cccc(F)c1)C1CCN(CC2CN(c3ccc(S(=O)(=O)C4CN(C(=O)/C=C/CN(C)C)C4)cc3)C2)CC1 ... 8.52
